tested on: Lefty1; experiment: Lefty1 protein binding to printed compounds – biochemical, small-molecule microarray, 635/667 nm fluorescence, primary screen (AID 1139); details: fluorescence 635/667, higher = more signal
QUANTITY: composite z-score
Give your answer as a number; write no unit.

Tell me measured composite z-score for C#CCN(Cc1ccccc1Br)[C@H](/C=C/c1ccccc1)[C@@H](O)Cc1ccccc1 please. -0.62

For the compound C=CC[C@]1(C(=O)N2CCOCC2)COC(c2ccc(OCCCO)cc2)=N1 , give its reported composite z-score. 0.768

Complete the entry with composite z-score for [N-]=[N+]=Nc1ccccc1C[C@]1(C(=O)O)COC(c2ccc(OCCCO)cc2)=N1 -0.843

State its composite z-score for this compound: CCCC=C(CCC)[C@@H](NP(=O)(c1ccccc1)c1ccccc1)c1ccc(-c2ccccc2)cc1 0.38

Retrieve composite z-score measured for O=C1O[C@H](c2ccccc2)[C@H](c2ccccc2)N2[C@H]1[C@@H](C(=O)O)[C@]1(C(=O)Nc3ccc(C#CCCO)cc31)[C@H]2c1ccccc1OCCO and print it. 0.404

Give the reported value of composite z-score for this record: CC(C)=C1C(=O)C(c2ccccc2)=C2CN3C(=O)N(CCc4ccccc4)C(=O)[C@]3(Cc3ccc(C(F)(F)F)cc3)[C@H]21 -1.16

Find the measured composite z-score of COCCOC(=O)N1C(=O)[C@@]2(c3cc(C#CC4=CCCCC4)ccc31)[C@H](C(=O)Nc1nc3ccccc3s1)[C@H]1C(=O)O[C@H](c3ccccc3)[C@H](c3ccccc3)N1[C@@H]2c1ccc(O)cc1 and report it. 0.869
